# testedOn: UniProtKB Q16880
# protocol: In vitro sulfatide (SFT) synthesis inhibition in OE19 cells, LC-MS/MS readout
# experimentalParameters: 72 hr, sulfatide by LC-MS/MS, read-out: Potency range (IC50, In-vitro SFT)
Please respond with reported IC50 for every item in the list.

Consider the worked cases shown below.
>>> print(df.to_string())
                                   compound          testedon  valuekind        val
0  CNC(=O)c1csc2c(C(F)(F)F)cc(OC3CC4COCC(C3)N4C(=O)OC(C)(C)C)nc12 (centres unmarked) [Example 750]  UniProtKB Q16880       IC50  > 1000 nM
1  CNC(=O)c1csc2c(C(F)(F)F)cc(N3CCC(OC(=O)NCC4CN(C)CCO4)CC3)nc12 (centres unmarked) [Example 115]  UniProtKB Q16880       IC50  > 1000 nM
2  CNC(=O)c1csc2c(C(F)(F)F)cc(N3CCC(OC(=O)N4CC(OC(F)F)C4)CC3)nc12 [Example 87]  UniProtKB Q16880       IC50   < 100 nM

Hi there! I need IC50 for each item below, if you can.
1. CNC(=O)c1csc2c(C(F)(F)F)cc(N3CCC(OC(=O)N[C@@H](C)C4CC4)CC3)nc12 [Example 109]
2. CNC(=O)c1csc2c(C(F)(F)F)nc(N3CCC(OC(=O)N[C@@H](C)COC)CC3)nc12 [Example 186]
3. CNC(=O)c1csc2c(C(F)(F)F)cc(OC3CC4(C3)CN(C(=O)O[C@H](C)C3CC3)C4)nc12 [Example 204]
4. CNC(=O)c1csc2c(C(F)(F)F)cc(N3CCC(NC(=O)OCC(C)C)CC3)nc12 [Example 297]
5. CNC(=O)c1csc2c(C(F)(F)F)cc(O[C@H]3C[C@@H](OC(=O)N[C@@H](C)COC(F)(F)F)C3)nc12 (racemic) [Example 833]

Solution:
["< 100 nM", "< 100 nM", "< 100 nM", "< 100 nM", "< 100 nM"]

Hi there! I need IC50 for each item below, if you can.
1. CNC(=O)c1csc2c(C(F)(F)F)cc(O[C@@H]3CCN(C(=O)OC(C)(C)C)[C@@H](C)C3)nc12 (racemic) [Example 368]
2. CNC(=O)c1csc2c(C(F)(F)F)c(C)c(O[C@@H]3CCN(C(=O)OC(C)(C)C)C[C@@H]3F)nc12 (racemic) [Example 387]
3. CC(C)(C)NC(=O)OC1CCN(c2cc(C(F)(F)F)c3scc(C(=O)N4CCC4)c3n2)CC1 [Example 422]

Solution:
1: 100 to 1000 nM; 2: < 100 nM; 3: 100 to 1000 nM

---

# testedOn: UGT8 (Homo sapiens)
# Sequence (Q16880 21-541): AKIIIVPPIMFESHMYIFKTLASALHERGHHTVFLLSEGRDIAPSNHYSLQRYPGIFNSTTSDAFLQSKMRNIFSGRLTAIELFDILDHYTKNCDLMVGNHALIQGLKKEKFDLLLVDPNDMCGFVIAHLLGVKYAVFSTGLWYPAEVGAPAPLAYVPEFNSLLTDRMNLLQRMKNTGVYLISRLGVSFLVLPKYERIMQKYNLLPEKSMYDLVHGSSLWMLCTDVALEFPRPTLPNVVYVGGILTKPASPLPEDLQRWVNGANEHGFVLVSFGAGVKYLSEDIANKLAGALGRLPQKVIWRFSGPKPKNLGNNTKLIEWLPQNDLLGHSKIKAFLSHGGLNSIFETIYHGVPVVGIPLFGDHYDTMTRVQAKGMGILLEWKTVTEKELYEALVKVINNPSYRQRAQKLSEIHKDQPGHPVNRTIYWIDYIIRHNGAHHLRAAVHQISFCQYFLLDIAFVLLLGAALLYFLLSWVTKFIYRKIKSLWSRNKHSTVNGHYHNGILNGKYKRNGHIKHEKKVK
# protocol: In vitro sulfatide (SFT) synthesis inhibition in OE19 cells, LC-MS/MS readout
# experimentalParameters: 72 hr, sulfatide by LC-MS/MS, read-out: Potency range (IC50, In-vitro SFT)
# Protocol: For medium throughput screening, library compounds were dispensed into CellBIND 384 well plates to a final concentration of 10 μM. OE19 cells (Sigma) were grown in to 70-90% confluency in RPMI 1640+L-glutamine and […]; were trypsinized to achieve suspension and were aliquoted at 2,500 cells/well, total well volume 50 μl. […] SFT was analyzed using an Applied Biosystems API-4000 triple quad mass spectrometer interfaced to a Thermo Scientific Multiplex system (LX-4) equipped with four pumps. […]
Please respond with reported IC50 for every item in the list.

>>> df
                                   compound             val
0  CNC(=O)c1csc2c(C(F)(F)F)cc(N3CCC(OC(=O)NC(C)C)CC3)nc12        < 100 nM
1  CNC(=O)c1csc2c(C(F)(F)F)cc(N3CCN(CC(=O)NC(C)C)C(C)(C)C3)nc12        < 100 nM
2  CNC(=O)c1csc2c(C)cc(N3CCN(CC(=O)NC(C)C)CC3)nc12  100 to 1000 nM
3  CNC(=O)c1csc2c(C(F)(F)F)c(C)c(N3CCC(OC(=O)N[C@@H](C)C4CC4)CC3)nc12        < 100 nM

Hi there! I need IC50 for each item below, if you can.
1. CNC(=O)c1csc2c(C(F)(F)F)c(C)c(OC3CCN(C(=O)OCCOC(F)(F)F)CC3)nc12
2. CNC(=O)c1csc2ccc(N3CCC(OC(=O)N[C@@H](C)COC(F)(F)F)CC3)nc12
3. CNC(=O)c1csc2c(C(F)(F)F)cc(N3CC[C@@H](OC(=O)NC(C)C)[C@H](F)C3)nc12
4. CNC(=O)c1csc2c(C(F)(F)F)cc(C3CC4(C3)CN(C(=O)OC(C)(C)C)C4)nc12
5. CNC(=O)c1csc2c(C(F)(F)F)cc(N3CC[C@H](OC(=O)NC4CC4)[C@@H](F)C3)nc12 (racemic)
6. CNC(=O)c1csc2c(C(F)(F)F)cc(N3CCC(OC(=O)N[C@@H](C)CF)CC3)nc12
7. CNC(=O)c1csc2c(C(F)(F)F)cc(O[C@H]3C[C@@H](OC(=O)NC4COC4)C3)nc12
8. CNC(=O)c1csc2c(C(F)(F)F)cc(N3CCN(C(=O)OCC4CC4)CC3)nc12

Solution:
1: < 100 nM; 2: < 100 nM; 3: < 100 nM; 4: < 100 nM; 5: < 100 nM; 6: < 100 nM; 7: 100 to 1000 nM; 8: < 100 nM

Hi there! I need IC50 for each item below, if you can.
1. CNC(=O)c1csc2c(C(F)(F)F)cc(N3CCC(OC(=O)NC(C)C)C(F)(F)C3)nc12 (centres unmarked)
2. CNC(=O)c1csc2c(C(F)(F)F)cc(N3CCC(OC(=O)NC4CC4)CC3)nc12
3. CNC(=O)c1csc2c(C(F)(F)F)cc(N3CC4(CN(C(=O)OC(C)CC#N)C4)C3)nc12 (centres unmarked)

Solution:
1. < 100 nM
2. < 100 nM
3. < 100 nM

Hi there! I need IC50 for each item below, if you can.
1. CNC(=O)c1csc2c(C(F)(F)F)cc(N3CCC(OC(=O)N4CC(OC(F)(F)F)C4)CC3)nc12
2. CNC(=O)c1csc2c(C(F)(F)F)c(Cl)c(N3CCC(OC(=O)NC4CC4)CC3)nc12
3. CNC(=O)c1csc2c(C(F)(F)F)cc(N3CC(Oc4cncc(F)c4)C3)nc12
4. CNC(=O)c1c(C)sc2c(C(F)(F)F)cc(N3CCN(CC(=O)NC(C)C)CC3)nc12
5. CCNC(=O)c1csc2c(C3CC3)cc(N3CCN(CC(=O)NC(C)C)CC3)nc12

Solution:
["< 100 nM", "< 100 nM", "100 to 1000 nM", "100 to 1000 nM", "> 1000 nM"]
